# ASSAY_TARGET: T1, CB1 surface expression (CB1 TRex-CHO / TRex-293 cells) (Homo sapiens, UniProt P21554)
# T1 construct: pcDNA4/TO native full length human CB1 receptor construct was transfected into tetracycline inducible system Trex-CHO and Trex-293 cells; expressed in transfected cells; tetracycline induced
# T1 sequence (P21554 whole entry): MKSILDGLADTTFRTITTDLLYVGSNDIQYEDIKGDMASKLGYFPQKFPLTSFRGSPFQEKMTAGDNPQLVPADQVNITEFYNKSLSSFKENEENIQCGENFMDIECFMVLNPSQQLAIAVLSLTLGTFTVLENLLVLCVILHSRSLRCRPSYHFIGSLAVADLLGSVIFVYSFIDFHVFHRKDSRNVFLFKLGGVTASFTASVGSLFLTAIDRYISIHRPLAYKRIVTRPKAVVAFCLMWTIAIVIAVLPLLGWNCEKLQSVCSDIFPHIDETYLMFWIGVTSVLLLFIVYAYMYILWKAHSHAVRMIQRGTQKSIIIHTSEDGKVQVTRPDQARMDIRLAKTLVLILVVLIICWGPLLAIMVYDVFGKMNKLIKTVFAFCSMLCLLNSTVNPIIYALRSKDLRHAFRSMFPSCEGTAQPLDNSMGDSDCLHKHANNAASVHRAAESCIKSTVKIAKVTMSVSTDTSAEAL
# Format: cell-based
# MEASUREMENT_SETUP: 1 hour
MEASURED_METRIC: CB1 receptor internalization induced by the substance alone

INSERT INTO results (molecule, result) VALUES
  ('PA2LR3-P4B1: anti-CB1 antibody; HC variable SEQ ID NO: 42, LC variable SEQ ID NO: 46 (antibody, V domains shown, PA2LR3-P4B1 Heavy chain variable region; PA2LR3-P4B1 Light chain variable region) VH: EVQLQQSGAELVRPGSSVKISCKASGFAFSNYWMNWVKQRPGQGLEWIGQIYPGDGDTNFNGKFKGRAILTADISSNTAYMQLSSLTSEDSAVYFCARSHGNYFPYWGQGTLVTVSA VL: QIVLTQSPAIMSASLGERVTMTCTASSSVSSSYLHWYQQKPGSSPKLWIYSTSNLASGVPARFSGSGSGTSYSLTISSMEAEDAATYYCHQYHRSPLTFGAGTKLELK', 'do not induce'),
  ('PA2LR3-P3F8: phage-derived CB1 antibody clone (antibody, V domains shown, PA2LR3-P3F8 Heavy Chain Variable Region; PA2LR3-P3F8 Light Chain Variable Region, phage-derived CB1 antibody clone) VH: EVQLQQSGAELVRPGSSVKISCKASGYAFSNYWMNWVKQRPGQGLEWIGQIYPGDGDTNYNGNFKGKATLTADKSSSTAYMQLSSLTSEDSAVYFCARSHGNYFPYWGQGTLVTVSA VL: DIVLTQSPAIMSASLGERVTMTCTASSSVSSSYLHWYQQKPGSSPKLWIYSTSNLASGVPARFSGSGSGTSYSLTISSMEAEDAATYYCQQWSSYPLTFGAGTKLELK', 'do not induce');
